From: patent US20240358849A1

Molecular target: T1, human Fibroblast Activation Protein (FAP), soluble antigen (human, UniProt Q12884 26-760, biotinylated when immobilized on streptavidin sensors)
T1 construct: also called hFAP; biotinylated FAP
T1 sequence (Q12884 26-760 limits assumed): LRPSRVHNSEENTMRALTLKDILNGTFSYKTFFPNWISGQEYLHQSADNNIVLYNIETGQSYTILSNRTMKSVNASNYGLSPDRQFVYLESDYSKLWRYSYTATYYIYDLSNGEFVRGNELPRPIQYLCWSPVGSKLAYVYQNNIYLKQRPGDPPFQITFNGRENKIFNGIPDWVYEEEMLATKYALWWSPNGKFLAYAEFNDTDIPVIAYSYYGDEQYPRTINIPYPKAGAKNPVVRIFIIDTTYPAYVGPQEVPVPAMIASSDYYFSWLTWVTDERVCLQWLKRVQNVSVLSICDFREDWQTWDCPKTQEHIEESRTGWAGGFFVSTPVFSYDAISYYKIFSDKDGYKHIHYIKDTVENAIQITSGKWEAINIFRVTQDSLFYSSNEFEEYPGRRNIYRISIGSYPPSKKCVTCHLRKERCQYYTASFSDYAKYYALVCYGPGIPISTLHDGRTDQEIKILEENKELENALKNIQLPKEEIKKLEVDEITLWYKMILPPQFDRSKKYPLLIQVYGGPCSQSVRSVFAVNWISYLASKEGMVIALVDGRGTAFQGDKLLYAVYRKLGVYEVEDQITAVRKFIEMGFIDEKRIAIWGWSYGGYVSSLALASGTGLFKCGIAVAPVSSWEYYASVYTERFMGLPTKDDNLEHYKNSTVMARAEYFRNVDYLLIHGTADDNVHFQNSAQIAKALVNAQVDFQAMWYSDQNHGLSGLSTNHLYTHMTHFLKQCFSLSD
Assay: BLI per 6.1.3, human FAP;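 further: biolayer interferometry with immobilized antigen on sensors, antibody association up to 240 s then dissociation up to 420 s, reference-subtracted, global 1:1 fit with unlinked Rmax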
# key: entry, value: koff
Write the number in s⁻¹ without appending the unit.

A selection of reference data follows.
binder: 872-5 VH Q96L:VL A91G/T92R (antibody, V domains shown, BLI per 6.1.3) VH: EVQLVESGGGLVQPGGSLRLSCAASGFTFRGYIMSWVRQAPGKGLEWVSWISPEGSRTGYADSVKGRFTISRDNSKNTLYLQMNSLRAEDTAVYYCARLLYGTWFDYWGQGTLVTVSS VL: DIQMTQSPSSLSASVGDRVTITCRASQSISSYLNWYQQKPGKAPKLLIYAASSLQSGVPSRFSGSGSGTDFTLTISSLQPEDFATYYCQQGRLLLPTFGQGTKVEIKR
value observed: 0.000571

binder: 872-5 VL A91G (antibody, V domains shown, BLI per 6.1.3 (monovalent Fab-Fc)) VH: EVQLVESGGGLVQPGGSLRLSCAASGFTFRGYIMSWVRQAPGKGLEWVSWISPEGSRTGYADSVKGRFTISRDNSKNTLYLQMNSLRAEDTAVYYCARLQYGTWFDYWGQGTLVTVSS VL: DIQMTQSPSSLSASVGDRVTITCRASQSISSYLNWYQQKPGKAPKLLIYAASSLQSGVPSRFSGSGSGTDFTLTISSLQPEDFATYYCQQGTLLLPTFGQGTKVEIKR
value observed: 0.00102

Now for a further binder.
Any idea what its koff is? The binder is 872-5 VH S52G/Q96L (antibody, V domains shown, BLI per 6.1.3) VH: EVQLVESGGGLVQPGGSLRLSCAASGFTFRGYIMSWVRQAPGKGLEWVSWIGPEGSRTGYADSVKGRFTISRDNSKNTLYLQMNSLRAEDTAVYYCARLLYGTWFDYWGQGTLVTVSS VL: DIQMTQSPSSLSASVGDRVTITCRASQSISSYLNWYQQKPGKAPKLLIYAASSLQSGVPSRFSGSGSGTDFTLTISSLQPEDFATYYCQQATLLLPTFGQGTKVEIKR
0.000161
